Test system: U937 human histiocytic leukemia cell line
Experiment: Cellular assay: inhibition of TSQ induced necroptosis, 384 well plate format
Settings: U-937, U937 cells, TSQ cocktail (TNF, Smac mimetic, Q-VD-OPh), 48 hours, CellTitre-Glo, read-out: Inhibition of TSQ-induced necroptosis (IC50 cell-based assay)
pIC50: −log10 of the molar value.
READOUT: pIC50

Here is how some molecules turned out for pIC50.
>>> result("NC(=O)c1c(-c2ccc(NC(=O)Cc3ccc(OC(F)(F)F)cc3)cc2)n[nH]c1Nc1cnccn1")
"6.00 to 7.00"
>>> result("NC(=O)c1c(-c2ccc(NC(=O)Cc3ccc(C(F)(F)F)cc3)cc2)n[nH]c1Nc1cnccn1")
"< 6.00"
>>> result("COCCOc1ccc(Nc2[nH]nc(-c3ccc(NC(=O)Cc4ccccc4)cc3)c2C(N)=O)nc1")
"6.00 to 7.00"
>>> result("NC(=O)c1c(-c2ccc(NC(=O)Cc3cccc(OC(F)(F)F)c3)cc2)n[nH]c1Nc1cnccn1")
"> 7.00"
>>> result("NC(=O)c1c(-c2ccc(NC(=O)Cc3ccsc3)cc2)n[nH]c1Nc1ccccn1")
"6.00 to 7.00"

In: Look up pIC50 for this molecule: NC(=O)c1c(-c2ccc(NC(=O)Cc3ccc(Cl)cc3)cc2)n[nH]c1Nc1cnccn1
Out: < 6.00

In: Given the molecule NC(=O)c1c(-c2ccc(NC(=O)Cc3ccccc3)cc2)n[nH]c1Nc1ccccn1 , what is its reported pIC50?
Out: < 6.00

In: Item under review: COc1cccc(CC(=O)Nc2ccc(-c3n[nH]c(Nc4cnccn4)c3C(N)=O)cc2)c1 . Reported pIC50?
Out: < 6.00

---

Each entry below carries its reported IC50.
Test system: U937 human histiocytic leukemia cell line
Test: Cellular assay: inhibition of TSQ induced necroptosis, 384 well plate format
Settings: U-937, U937 cells, TSQ cocktail (TNF, Smac mimetic, Q-VD-OPh), 48 hours, CellTitre-Glo, read-out: Inhibition of TSQ-induced necroptosis (IC50 cell-based assay)

Answered examples (3):
>>> result("NC(=O)c1c(-c2ccc(NC(=O)N3CCC[C@H](c4cccc(F)c4)C3)cc2)n[nH]c1Nc1cccc(C(F)(F)F)n1")
"< 100 nM"
>>> result("NC(=O)c1c(-c2ccc(NC(=O)Cc3ccccc3Cl)cc2)n[nH]c1Nc1cnccn1")
"100 to 1000 nM"
>>> result("COc1cc(Nc2[nH]nc(-c3ccc(NC(=O)N4CCCC4c4ccccc4)cc3)c2C(N)=O)ccn1 (centres unmarked)")
"> 1000 nM"

In: What does the record list as IC50 for NC(=O)c1c(-c2ccc(NC(=O)Cc3ccccc3C(F)(F)F)cc2)n[nH]c1Nc1cnccn1 ?
Out: > 1000 nM

In: IC50 for NC(=O)c1c(-c2ccc(NC(=O)Cc3cccc(C(F)(F)F)c3)cc2)n[nH]c1Nc1cnccn1 ?
Out: 100 to 1000 nM

---

As shown below, each of these molecules has a reported Kd value.
Target: RIP1 (Homo sapiens, UniProt Q13546)
Sequence (Q13546 1-671): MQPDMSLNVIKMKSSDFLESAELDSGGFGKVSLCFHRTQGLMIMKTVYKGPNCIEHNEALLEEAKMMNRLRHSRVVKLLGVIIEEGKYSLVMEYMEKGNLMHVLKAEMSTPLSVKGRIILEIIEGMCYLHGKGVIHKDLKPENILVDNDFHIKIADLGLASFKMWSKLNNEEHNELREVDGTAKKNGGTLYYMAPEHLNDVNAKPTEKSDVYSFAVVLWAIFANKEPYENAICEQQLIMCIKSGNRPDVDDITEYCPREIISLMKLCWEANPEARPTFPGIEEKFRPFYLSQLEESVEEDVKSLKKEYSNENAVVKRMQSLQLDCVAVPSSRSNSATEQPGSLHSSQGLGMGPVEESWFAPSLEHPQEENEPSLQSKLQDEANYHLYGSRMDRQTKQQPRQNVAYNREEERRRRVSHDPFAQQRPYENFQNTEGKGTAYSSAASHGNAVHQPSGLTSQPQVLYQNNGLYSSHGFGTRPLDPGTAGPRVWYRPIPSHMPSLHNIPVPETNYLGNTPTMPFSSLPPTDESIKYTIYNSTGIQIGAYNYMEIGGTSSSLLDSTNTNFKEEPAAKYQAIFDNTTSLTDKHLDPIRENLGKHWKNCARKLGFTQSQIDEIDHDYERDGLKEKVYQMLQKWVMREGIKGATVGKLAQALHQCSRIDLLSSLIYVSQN

>>> result("COc1cc(Nc2[nH]nc(-c3ccc(NC(=O)N4CCCC4c4ccccc4)cc3)c2C(N)=O)ccn1 (stereo not shown) [Compound 58]")
"> 1000 nM"
>>> result("NC(=O)c1c(-c2ccc(NC(=O)Cc3ccc(Cl)cc3)cc2)n[nH]c1Nc1cnccn1 [Compound 21]")
"> 1000 nM"
>>> result("COCCOc1ccc(Nc2[nH]nc(-c3ccc(NC(=O)Cc4ccccc4)cc3)c2C(N)=O)nc1 [Compound 44]")
"100 to 1000 nM"

In: I have this molecule here, NC(=O)c1c(-c2ccc(NC(=O)Cc3cccc(C(F)(F)F)c3)cc2)n[nH]c1Nc1cnccn1 [Compound 24] , and I need its recorded Kd.
Out: 100 to 1000 nM

---

Molecular target: RIP3 (Homo sapiens, UniProt Q9Y572)
Sequence (Q9Y572 whole entry): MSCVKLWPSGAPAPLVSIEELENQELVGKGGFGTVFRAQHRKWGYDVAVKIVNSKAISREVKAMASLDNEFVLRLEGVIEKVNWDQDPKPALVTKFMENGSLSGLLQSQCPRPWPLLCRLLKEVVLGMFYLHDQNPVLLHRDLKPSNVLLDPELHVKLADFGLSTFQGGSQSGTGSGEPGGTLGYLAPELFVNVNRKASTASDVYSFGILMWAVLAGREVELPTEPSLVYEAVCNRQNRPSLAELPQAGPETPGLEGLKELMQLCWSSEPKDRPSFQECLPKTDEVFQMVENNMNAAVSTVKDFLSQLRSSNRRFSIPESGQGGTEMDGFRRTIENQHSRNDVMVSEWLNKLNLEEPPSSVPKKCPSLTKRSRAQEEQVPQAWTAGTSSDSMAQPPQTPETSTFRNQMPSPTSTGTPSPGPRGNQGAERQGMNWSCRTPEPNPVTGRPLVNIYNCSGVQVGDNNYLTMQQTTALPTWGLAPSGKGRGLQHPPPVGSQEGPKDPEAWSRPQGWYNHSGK
Form field: Kd (one value per entry).

Below are worked cases with known answers.
>>> result("COc1cc(Nc2[nH]nc(-c3ccc(NC(=O)N4CCCC4c4ccccc4)cc3)c2C(N)=O)ccn1 (stereo not drawn)")
"> 1000 nM"
>>> result("NC(=O)c1c(-c2ccc(NC(=O)Cc3cccc(OC(F)(F)F)c3)cc2)n[nH]c1Nc1cnccn1")
"> 1000 nM"

Moving on to another compound below.
In: Which Kd is reported with RIP3 (Homo sapiens, UniProt Q9Y572) for this entry: NC(=O)c1c(-c2ccc(NC(=O)Cc3ccc(Cl)cc3)cc2)n[nH]c1Nc1cnccn1 ?
Out: > 1000 nM
